Compiled pKd measurements on Galectin-3 (Homo sapiens, UniProt P17931) taken from the literature.
Sequence (P17931 whole entry): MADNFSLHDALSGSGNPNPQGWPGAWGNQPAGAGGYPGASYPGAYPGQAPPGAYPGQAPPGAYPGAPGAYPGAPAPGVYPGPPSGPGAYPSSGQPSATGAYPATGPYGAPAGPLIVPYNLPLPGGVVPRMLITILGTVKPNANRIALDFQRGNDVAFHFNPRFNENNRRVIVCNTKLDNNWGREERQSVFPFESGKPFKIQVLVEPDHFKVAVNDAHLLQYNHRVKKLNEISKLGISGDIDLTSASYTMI
In plain terms, pKd is the concentration in mol/L turned into minus its base-10 logarithm.

`COc1cc(OC)cc(C(=O)N[C@@H]2[C@@H](O)[C@@H](S[C@@H]3O[C@H](CO)[C@H](O)[C@H](NC(=O)c4cc(OC)cc(OC)c4)[C@H]3O)O[C@H](CO)[C@@H]2O)c1` yielded pKd of 7.30

`O=C(O[C@H]1[C@@H](O)[C@@H](CO)O[C@@H](S[C@@H]2O[C@H](CO)[C@H](O)[C@H](OC(=O)c3ccccc3)[C@H]2O)[C@@H]1O)c1ccccc1` yielded pKd of 5.80

`CO[C@@H]1O[C@H](CO)[C@@H](O[C@@H]2O[C@H](CO)[C@H](O)[C@H](NC(=O)c3cc4ccccc4cc3C(=O)O)[C@H]2O)[C@H](O)[C@H]1NC(C)=O` yielded pKd of 6.52

`CO[C@@H]1O[C@H](CO)[C@H](O)[C@H](OC(=O)c2ccc(C)cc2)[C@@H]1OC(C)=O` yielded pKd of 3.38

`CO[C@H]1O[C@H](CO)[C@H](O)[C@H](OCc2cc3ccccc3o/c2=N\S(=O)(=O)c2ccc(C)cc2)[C@H]1O` yielded pKd of 3.92

`CS[C@@H]1O[C@H](CO)[C@H](O)[C@H](NC(=O)c2ccc(C)cc2)[C@H]1O[PH](=O)O` yielded pKd of 3.82

`COc1ccc(-c2cn([C@H]3[C@@H](O)[C@@H](CO)O[C@@H](SC)[C@@H]3O)nn2)cc1` yielded pKd of 3.59

`CS[C@@H]1O[C@H](CO)[C@H](O)[C@H](NC(=O)c2ccc(C)cc2)[C@H]1OS(=O)(=O)O` yielded pKd of 4.06

`OC[C@H]1O[C@@H](O[C@H]2[C@H](O)C[C@@H](OCCCCCCCCCCCCS)O[C@@H]2CO)[C@H](O)[C@@H](O)[C@H]1O` yielded pKd of 5.84

`[N-]=[N+]=NCCCO[C@@H]1O[C@H](CO)[C@@H](O[C@@H]2O[C@H](CO)[C@H](O)[C@H](OCc3ccc(Oc4ccccc4)cc3)[C@H]2O)[C@H](O)[C@H]1NC(=O)c1ccccc1` yielded pKd of 5.09

`CO[C@@H]1O[C@H](CO)[C@H](O)[C@H](OC(=O)c2ccc(C)cc2)[C@@H]1OC(=O)c1cccc([N+](=O)[O-])c1` yielded pKd of 3.89

`CO[C@H]1O[C@H](CO)[C@H](O)[C@H](OCc2cc3ccccc3o/c2=N\S(=O)(=O)c2ccccc2)[C@H]1OC(C)=O` yielded pKd of 3.89

`OC[C@H]1O[C@@H](S[C@@H]2O[C@H](CO)[C@H](O)[C@H](n3cc(-c4cccc(O)c4)nn3)[C@H]2O)[C@H](O)[C@@H](n2cc(-c3cccc(O)c3)nn2)[C@H]1O` yielded pKd of 7.66

`CO[C@@H]1O[C@H](CO)[C@H](O)[C@H](OC(=O)c2ccc(C)cc2)[C@@H]1OS(=O)(=O)O` yielded pKd of 3.60

`Cc1ccc(C(=O)O[C@H]2[C@@H](O)[C@@H](CO)O[C@@H](S[C@@H]3O[C@H](CO)[C@H](O)[C@H](OC(=O)c4ccc(C)cc4)[C@H]3O)[C@@H]2O)cc1` yielded pKd of 5.44

COc1c(F)c(F)c(C(=O)N[C@H]2[C@@H](O)[C@@H](CO)O[C@@H](O[C@H]3[C@H](O)[C@@H](NC(C)=O)C(O)O[C@@H]3CO)[C@@H]2O)c(F)c1F (some centres undefined) yielded pKd of 5.48

`COc1cccc(C(=O)O[C@H]2[C@@H](O)[C@@H](CO)O[C@@H](S[C@@H]3O[C@H](CO)[C@H](O)[C@H](OC(=O)c4cccc(OC)c4)[C@H]3O)[C@@H]2O)c1` yielded pKd of 6.16

`CO[C@@H]1O[C@H](CO)[C@H](O)[C@H](OC(=O)c2ccc(C)cc2)[C@@H]1O` yielded pKd of 2.85

`CO[C@@H]1O[C@H](CO)[C@H](O)[C@H](OC(=O)c2ccc(C)cc2)[C@@H]1OP(=O)(O)OC` yielded pKd of 3.22

`CO[C@@H]1O[C@H](CO)[C@H](O)[C@H](OC(=O)c2ccc(C)cc2)[C@@H]1OC(=O)c1ccc(C)cc1` yielded pKd of 3.15

`CS[C@@H]1O[C@H](CO)[C@H](O)[C@H](NC(=O)c2ccc(C)cc2)[C@H]1O` yielded pKd of 3.66
